Measured Time by item
# Test system: Mus musculus
# protocol: Analgesic activity in albino mouse assessed as forepaw licking/jumping latency time at 10 mg/kg, ip measured after 120 mins by hot plate test (reference value: 2.62 +/- 0.06 sec)
# Format: functional
# cond: 2 h
readoutName: Time (s)

molecule	testTarget	unitLabel	observedValue
COc1cc(/C=C/C(=O)/C=C(O)/C=C/c2ccc(OC(=O)[C@@H](C)N)c(OC)c2)ccc1OC(=O)[C@@H](C)N.Cl.Cl	Mus musculus	s	4.02
COc1ccc2c(c1)c(CC(=O)O)c(C)n2C(=O)c1ccc(Cl)cc1	Mus musculus	s	3.72
COc1cc(/C=C/C(=O)/C=C(O)/C=C/c2ccc(OC(=O)[C@H](CCSC)NC(=O)OCc3ccccc3)c(OC)c2)ccc1OC(=O)[C@H](CCSC)NC(=O)OCc1ccccc1	Mus musculus	s	3.18
COc1cc(/C=C/C(=O)/C=C(O)/C=C/c2ccc(OC(=O)[C@@H](C)NC(=O)OCc3ccccc3)c(OC)c2)ccc1OC(=O)[C@@H](C)NC(=O)OCc1ccccc1	Mus musculus	s	3.28
COc1cc(/C=C/C(=O)/C=C(O)/C=C/c2ccc(OC(=O)[C@H](CCSC)NC(=O)OCC3c4ccccc4-c4ccccc43)c(OC)c2)ccc1OC(=O)[C@H](CCSC)NC(=O)OCC1c2ccccc2-c2ccccc21	Mus musculus	s	2.98
COc1cc(/C=C/C(=O)/C=C(O)/C=C/c2ccc(OC(=O)[C@H](CCSC)NC(=O)OC(C)(C)C)c(OC)c2)ccc1OC(=O)[C@H](CCSC)NC(=O)OC(C)(C)C	Mus musculus	s	3.86

* * *

# Test system: Peritoneal macrophage
# protocol: Antiinflammatory activity in […] mouse Peritoneal macrophages assessed as reduction in LPS-induced NO production by measuring reduction in stimulation index at 10 uM preincubated for 1 hr followed by LPS stimulation measured after 24 hrs by Griess method (reference value: 27.31 +/- 2.56 uM)
# Format: functional
# cond: time 25 hrs
readoutName: Activity (µM)

molecule	readoutName	unitLabel	observedValue
COc1cc(/C=C/C(=O)/C=C(O)/C=C/c2ccc(OC(=O)[C@H](N)CCSC)c(OC)c2)ccc1OC(=O)[C@H](N)CCSC.Cl.Cl	Activity	µM	13.77
COc1cc(/C=C/C(=O)/C=C(O)/C=C/c2ccc(OC(=O)C(C)NC(=O)OC(C)(C)C)c(OC)c2)ccc1OC(=O)C(C)NC(=O)OC(C)(C)C (configuration not stated)	Activity	µM	18.88
COc1cc(/C=C/C(=O)/C=C(O)/C=C/c2ccc(OC(=O)[C@@H](NC(=O)OCC3c4ccccc4-c4ccccc43)C(C)C)c(OC)c2)ccc1OC(=O)[C@@H](NC(=O)OCC1c2ccccc2-c2ccccc21)C(C)C	Activity	µM	23.91
COc1cc(/C=C/C(=O)/C=C(O)/C=C/c2ccc(OC(=O)CNC(=O)OCC3c4ccccc4-c4ccccc43)c(OC)c2)ccc1OC(=O)CNC(=O)OCC1c2ccccc2-c2ccccc21	Activity	µM	18.73
COc1cc(/C=C/C(=O)/C=C(O)/C=C/c2ccc(OC(=O)[C@H](CCSC)NC(=O)OCC3c4ccccc4-c4ccccc43)c(OC)c2)ccc1OC(=O)[C@H](CCSC)NC(=O)OCC1c2ccccc2-c2ccccc21	Activity	µM	14.23
COc1cc(/C=C/C(=O)/C=C(O)/C=C/c2ccc(OC(=O)[C@@H](N)C(C)C)c(OC)c2)ccc1OC(=O)[C@@H](N)C(C)C.Cl.Cl	Activity	µM	20.65
COc1cc(/C=C/C(=O)/C=C(O)/C=C/c2ccc(OC(=O)[C@@H](C)NC(=O)OC(C)(C)C)c(OC)c2)ccc1OC(=O)[C@@H](C)NC(=O)OC(C)(C)C	Activity	µM	20.81
COc1cc(/C=C/C(=O)/C=C(O)/C=C/c2ccc(OC(=O)[C@H](Cc3ccccc3)NC(=O)OCC3c4ccccc4-c4ccccc43)c(OC)c2)ccc1OC(=O)[C@H](Cc1ccccc1)NC(=O)OCC1c2ccccc2-c2ccccc21	Activity	µM	18.84
COc1cc(/C=C/C(=O)/C=C(O)/C=C/c2ccc(OC(=O)[C@@H](C)NC(=O)OCc3ccccc3)c(OC)c2)ccc1OC(=O)[C@@H](C)NC(=O)OCc1ccccc1	Activity	µM	17.63
COc1cc(/C=C/C(=O)/C=C(O)/C=C/c2ccc(OC(=O)[C@H](Cc3c[nH]c4ccccc34)NC(=O)OCc3ccccc3)c(OC)c2)ccc1OC(=O)[C@H](Cc1c[nH]c2ccccc12)NC(=O)OCc1ccccc1	Activity	µM	24.28
COc1cc(/C=C/C(=O)/C=C(O)/C=C/c2ccc(OC(=O)CN)c(OC)c2)ccc1OC(=O)CN.Cl.Cl	Activity	µM	13.66
COc1cc(/C=C/C(=O)/C=C(O)/C=C/c2ccc(OC(=O)[C@@H](N)Cc3ccccc3)c(OC)c2)ccc1OC(=O)[C@@H](N)Cc1ccccc1.Cl.Cl	Activity	µM	16.46

Source: ChEMBL document CHEMBL4765295
